system: Staphylococcus aureus; experiment: Antibacterial activity against Staphylococcus aureus UAMS-1 after 20 hrs by microdilution method; format: functional; conditions: UAMS-1, 20 h
endpoint: MIC (µM)
Hi! Could you send only the number? It should be in µM, unit omitted.

Dear colleague, I am looking for the recorded MIC of the following compound: CS(=O)(=O)O.CS(=O)(=O)O.c1cc2c(C3(c4c[nH]c5cc(C6=NCCN6)ccc45)CCCCC3)c[nH]c2cc1C1=NCCN1 25

====

Exercise: state measured Retention_time for each of the compounds provided.
experiment: Retention time of the compound by HPLC method; format: physicochemical
Give the number; min is assumed, so skip it.

Tell me the measured Retention_time of Brc1cccc(Br)c1C(c1c[nH]c2cc(C3=NCCN3)ccc12)c1c[nH]c2cc(C3=NCCN3)ccc12.CS(=O)(=O)O.CS(=O)(=O)O , please. 11.159

Could you share which Retention_time value was measured for CS(=O)(=O)O.CS(=O)(=O)O.Clc1ccc(C(c2c[nH]c3cc(C4=NCCN4)ccc23)c2c[nH]c3cc(C4=NCCN4)ccc23)cc1 ? 11.491

Value lookup for Retention_time; key = CS(=O)(=O)O.CS(=O)(=O)O.Clc1cccc(Cl)c1C(c1c[nH]c2cc(C3=NCCN3)ccc12)c1c[nH]c2cc(C3=NCCN3)ccc12 10.973

Please report the recorded Retention_time for Cl.Clc1cccc(Cl)c1C(c1c[nH]c2ccc(C3=NCCN3)cc12)c1c[nH]c2ccc(C3=NCCN3)cc12 . 10.537

What measured Retention_time goes with CS(=O)(=O)O.CS(=O)(=O)O.c1ccc(C(c2c[nH]c3cc(C4=NCCN4)ccc23)c2c[nH]c3cc(C4=NCCN4)ccc23)cc1 ? 10.643

I would be grateful if you could share the reported Retention_time for CS(=O)(=O)O.CS(=O)(=O)O.c1cc2c(C3(c4c[nH]c5cc(C6=NCCN6)ccc45)CCCCC3)c[nH]c2cc1C1=NCCN1 . 11.276

====

experiment: Therapeutic index, ratio of HC50 for human RBC to MIC for methicillin-resistant Staphylococcus aureus USA300; conditions: human red blood cells, read-out: TI
endpoint: selectivity ratio

Given the entry CS(=O)(=O)O.CS(=O)(=O)O.Clc1cccc(Cl)c1C(c1c[nH]c2cc(C3=NCCN3)ccc12)c1c[nH]c2cc(C3=NCCN3)ccc12 , report its measured selectivity ratio. 24 to 48

Using the record for CS(=O)(=O)O.CS(=O)(=O)O.Clc1ccc(C(c2c[nH]c3cc(C4=NCCN4)ccc23)c2c[nH]c3cc(C4=NCCN4)ccc23)c(Cl)c1 , report its selectivity ratio. 12

selectivity ratio lookup needed for CS(=O)(=O)O.CS(=O)(=O)O.c1cc2c(C(c3c[nH]c4cc(C5=NCCN5)ccc34)C3CCCCC3)c[nH]c2cc1C1=NCCN1 , thanks. 7 to 14

Data request, read-out selectivity ratio, for Cl.Clc1cccc(Cl)c1C(c1c[nH]c2ccc(C3=NCCN3)cc12)c1c[nH]c2ccc(C3=NCCN3)cc12 > 48

====

assay: Therapeutic index, ratio of HC50 for human RBC to MIC for methicillin-resistant Staphylococcus aureus USA300; conditions: human red blood cells, read-out: TI
endpoint: selectivity ratio
The answer should be a number; do not append a unit.

Quick one: selectivity ratio for CS(=O)(=O)O.CS(=O)(=O)O.c1cc2c(Cc3c[nH]c4cc(C5=NCCN5)ccc34)c[nH]c2cc1C1=NCCN1 ? 26

Which selectivity ratio is listed for CCC(CC)(c1c[nH]c2cc(C3=NCCN3)ccc12)c1c[nH]c2cc(C3=NCCN3)ccc12.CS(=O)(=O)O.CS(=O)(=O)O ? 48

What measured selectivity ratio goes with CC(C)(c1c[nH]c2cc(C3=NCCN3)ccc12)c1c[nH]c2cc(C3=NCCN3)ccc12.CS(=O)(=O)O.CS(=O)(=O)O ? 33

Can you look up the measured selectivity ratio of CS(=O)(=O)O.CS(=O)(=O)O.c1ccc(C(c2c[nH]c3cc(C4=NCCN4)ccc23)c2c[nH]c3cc(C4=NCCN4)ccc23)cc1 for me? 24

====

tested on: Staphylococcus aureus; assay: Antibacterial activity against Staphylococcus aureus UAMS-1 after 20 hrs by microdilution method; type: functional; settings: UAMS-1, 20 h
Give MIC for every item shown.
Write it as a number; the unit µM goes unstated.

Please provide the recorded MIC for CS(=O)(=O)O.CS(=O)(=O)O.Clc1ccc(C(c2c[nH]c3cc(C4=NCCN4)ccc23)c2c[nH]c3cc(C4=NCCN4)ccc23)cc1 , tested on Staphylococcus aureus. 12.5

Please tell me: MIC of Brc1cccc(Br)c1C(c1c[nH]c2cc(C3=NCCN3)ccc12)c1c[nH]c2cc(C3=NCCN3)ccc12.CS(=O)(=O)O.CS(=O)(=O)O , system Staphylococcus aureus? 6.2

====

assay: Hemolytic activity against human RBC after 1 hr; format: ADME, cell-based, Erythrocyte; conditions: human red blood cells
endpoint: HC50 at 1 h (µM)
Report only the number, with the unit µM understood.

Which HC50 at 1 h reading was recorded for the compound CS(=O)(=O)O.CS(=O)(=O)O.Clc1ccc(C(c2c[nH]c3cc(C4=NCCN4)ccc23)c2c[nH]c3cc(C4=NCCN4)ccc23)c(Cl)c1 ? 40

What measured HC50 at 1 h goes with CS(=O)(=O)O.CS(=O)(=O)O.Clc1cccc(Cl)c1C(c1c[nH]c2cc(C3=NCCN3)ccc12)c1c[nH]c2cc(C3=NCCN3)ccc12 ? 300

// HC50 at 1 h lookup, key: CS(=O)(=O)O.CS(=O)(=O)O.c1cc2c(Cc3c[nH]c4cc(C5=NCCN5)ccc34)c[nH]c2cc1C1=NCCN1 1300

Request the reported HC50 at 1 h associated with CS(=O)(=O)O.CS(=O)(=O)O.c1ccc(C(c2c[nH]c3cc(C4=NCCN4)ccc23)c2c[nH]c3cc(C4=NCCN4)ccc23)cc1 600

Which HC50 at 1 h is reported for this compound? CCCC(CCC)(c1c[nH]c2cc(C3=NCCN3)ccc12)c1c[nH]c2cc(C3=NCCN3)ccc12.CS(=O)(=O)O.CS(=O)(=O)O 150

If you can, please state the reported HC50 at 1 h value of Brc1cccc(Br)c1C(c1c[nH]c2cc(C3=NCCN3)ccc12)c1c[nH]c2cc(C3=NCCN3)ccc12.CS(=O)(=O)O.CS(=O)(=O)O . 150

Query (compound): CS(=O)(=O)O.CS(=O)(=O)O.Clc1ccc(C(c2c[nH]c3cc(C4=NCCN4)ccc23)c2c[nH]c3cc(C4=NCCN4)ccc23)cc1 ; field requested: HC50 at 1 h 150

Data request, read-out HC50 at 1 h, for CCC(CC)(c1c[nH]c2cc(C3=NCCN3)ccc12)c1c[nH]c2cc(C3=NCCN3)ccc12.CS(=O)(=O)O.CS(=O)(=O)O 300

====

test: Retention time of the compound by HPLC method; format: physicochemical
Please use Met whenever Retention_time is not below 10 min, and Not met whenever it is.

Form field: Retention_time at least 10 min? Entry: CS(=O)(=O)O.CS(=O)(=O)O.c1cc2c(Cc3c[nH]c4cc(C5=NCCN5)ccc34)c[nH]c2cc1C1=NCCN1 Not met

Quick check, Retention_time >= 10 min? CCCC(CCC)(c1c[nH]c2cc(C3=NCCN3)ccc12)c1c[nH]c2cc(C3=NCCN3)ccc12.CS(=O)(=O)O.CS(=O)(=O)O Met

Item CS(=O)(=O)O.CS(=O)(=O)O.Clc1ccc(C(c2c[nH]c3cc(C4=NCCN4)ccc23)c2c[nH]c3cc(C4=NCCN4)ccc23)c(Cl)c1 with Retention_time of 10 min or above? Met

In plain terms: is recorded Retention_time at least 10 min for CCC(CC)(c1c[nH]c2cc(C3=NCCN3)ccc12)c1c[nH]c2cc(C3=NCCN3)ccc12.CS(=O)(=O)O.CS(=O)(=O)O ? Met

# bool: Retention_time of CS(=O)(=O)O.CS(=O)(=O)O.NCc1ccc2c(C3(c4c[nH]c5cc(CN)ccc45)CCCCC3)c[nH]c2c1 >= 10 min Met

Evaluate CS(=O)(=O)O.CS(=O)(=O)O.c1cc2c(C(c3c[nH]c4cc(C5=NCCN5)ccc34)C3CCCCC3)c[nH]c2cc1C1=NCCN1 : Retention_time at minimum 10 min? Met

====

test system: Staphylococcus aureus; test: Antibacterial activity against methicillin-resistant Staphylococcus aureus USA300 after 20 hrs by microdilution method; format: functional; settings: USA300, 20 h
endpoint: MIC

Returns the measured MIC for the input molecule. Input: Brc1cccc(Br)c1C(c1c[nH]c2cc(C3=NCCN3)ccc12)c1c[nH]c2cc(C3=NCCN3)ccc12.CS(=O)(=O)O.CS(=O)(=O)O 3.1 to 12.5 µM

Give its MIC value. Item: CS(=O)(=O)O.CS(=O)(=O)O.Clc1ccc(C(c2c[nH]c3cc(C4=NCCN4)ccc23)c2c[nH]c3cc(C4=NCCN4)ccc23)cc1 3.1 to 6.2 µM

Value lookup for MIC; key = CS(=O)(=O)O.CS(=O)(=O)O.Clc1ccc(C(c2c[nH]c3cc(C4=NCCN4)ccc23)c2c[nH]c3cc(C4=NCCN4)ccc23)c(Cl)c1 3.1 to 6.2 µM

Need MIC, item CS(=O)(=O)O.CS(=O)(=O)O.Cn1cc(C2(c3cn(C)c4cc(C5=NCCN5)ccc34)CCCCC2)c2ccc(C3=NCCN3)cc21 12.5 to 25 µM

For the molecule shown here, CS(=O)(=O)O.CS(=O)(=O)O.Clc1cccc(Cl)c1C(c1c[nH]c2cc(C3=NCCN3)ccc12)c1c[nH]c2cc(C3=NCCN3)ccc12 , give the reported MIC. 6.2 to 12.5 µM
